molecular target: HCK (Homo sapiens, UniProt P08631)
Sequence (P08631 whole entry): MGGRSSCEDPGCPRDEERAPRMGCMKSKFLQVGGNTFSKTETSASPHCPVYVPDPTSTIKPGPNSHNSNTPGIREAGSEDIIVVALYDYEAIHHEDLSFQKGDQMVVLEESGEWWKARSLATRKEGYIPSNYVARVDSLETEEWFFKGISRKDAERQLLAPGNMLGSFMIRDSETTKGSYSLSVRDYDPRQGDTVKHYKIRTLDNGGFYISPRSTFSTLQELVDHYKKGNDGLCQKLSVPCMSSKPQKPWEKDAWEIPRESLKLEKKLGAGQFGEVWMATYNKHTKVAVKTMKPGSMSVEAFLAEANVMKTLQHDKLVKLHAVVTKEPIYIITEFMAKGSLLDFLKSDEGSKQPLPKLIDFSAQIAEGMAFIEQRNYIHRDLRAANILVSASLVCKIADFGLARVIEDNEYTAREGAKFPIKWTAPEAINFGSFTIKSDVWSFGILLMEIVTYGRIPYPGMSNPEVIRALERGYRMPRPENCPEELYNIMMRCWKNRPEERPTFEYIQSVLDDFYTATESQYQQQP
resultType: pIC50
Conceptually, pIC50 converts a concentration in mol/L into minus its log10.

What value of pIC50 has been reported for the following compound? COc1cc(Nc2ncnc(Nc3cc4c(cn3)NC(=O)C(C)(C)O4)n2)cc(OC)c1OC [MT-SYK-03]
7.27

---

assay: Tissue distribution after single oral administration in rats; assay type: in vivo, rat; conditions: male, Wistar, rat, prostate, po, 100 mg/kg, prostate, 100 mg/kg PO, male Wistar rats, 8 h, mean; read-out: Prostate concentration, Mean
resultType: concentration at 8 h (ng/mL)
Write the value in ng/mL as a bare number.

Entry COc1cc(Nc2ncnc(Nc3cc4c(cn3)NC(=O)C(C)(C)O4)n2)cc(OC)c1OC : reported concentration at 8 h = ?
251

---

experiment: Pharmacokinetics after single oral administration to rats; assay type: in vivo, rat; details: male, Wistar, rat, plasma, oral, 200 mg/kg, Table S8, 200 mg/kg PO, male Wistar rats, 2 h, individual Rat#13-18; read-out: Plasma concentration
resultType: concentration at 2 h (ng/mL)
Respond with the bare value in ng/mL.

For COc1cc(Nc2ncnc(Nc3cc4c(cn3)NC(=O)C(C)(C)O4)n2)cc(OC)c1OC , what is its reported concentration at 2 h?
1180

---

test: Pharmacokinetics after single oral administration to rats; format: in vivo, rat; details: male, Wistar, rat, plasma, oral, 100 mg/kg, Table S6, 100 mg/kg PO, male Wistar rats, 48 h, mean of Rat#1-6; read-out: Plasma concentration, Mean
resultType: concentration at 48 h (ng/mL)
Unit ng/mL implied. Number only.

So what's the measured concentration at 48 h for this one? COc1cc(Nc2ncnc(Nc3cc4c(cn3)NC(=O)C(C)(C)O4)n2)cc(OC)c1OC [MT-SYK-03]
1.27

---

target: STK22D/TSSK1 (Homo sapiens, UniProt Q9BXA7); construct: purchased Reaction Biology Corporation (Malvern, PA, USA); assay: Kinase selectivity profile assay; type: biochemical; settings: 10-dose mode, threefold serial dilution from 10 μM
Sequence (Q9BXA7 whole entry): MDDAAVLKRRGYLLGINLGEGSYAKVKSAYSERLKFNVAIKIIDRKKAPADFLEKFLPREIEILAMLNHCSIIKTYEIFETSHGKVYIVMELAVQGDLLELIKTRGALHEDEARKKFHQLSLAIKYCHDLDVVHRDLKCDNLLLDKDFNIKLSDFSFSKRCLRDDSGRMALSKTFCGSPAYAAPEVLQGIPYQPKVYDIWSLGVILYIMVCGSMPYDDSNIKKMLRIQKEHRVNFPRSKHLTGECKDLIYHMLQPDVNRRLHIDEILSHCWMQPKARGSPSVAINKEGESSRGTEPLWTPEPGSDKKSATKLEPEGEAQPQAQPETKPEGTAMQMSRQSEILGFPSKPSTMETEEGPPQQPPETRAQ
resultType: IC50 (µM)
Output spec: scalar in µM, unitless text.

Could you tell me which IC50 is on file for COc1cc(Nc2ncnc(Nc3cc4c(cn3)NC(=O)C(C)(C)O4)n2)cc(OC)c1OC ?
0.198

---

molecular target: ARK5/NUAK1 (Homo sapiens, UniProt O60285); experiment: Kinase selectivity profile assay; conditions: 10-dose mode, threefold serial dilution from 10 μM
Sequence (O60285 whole entry): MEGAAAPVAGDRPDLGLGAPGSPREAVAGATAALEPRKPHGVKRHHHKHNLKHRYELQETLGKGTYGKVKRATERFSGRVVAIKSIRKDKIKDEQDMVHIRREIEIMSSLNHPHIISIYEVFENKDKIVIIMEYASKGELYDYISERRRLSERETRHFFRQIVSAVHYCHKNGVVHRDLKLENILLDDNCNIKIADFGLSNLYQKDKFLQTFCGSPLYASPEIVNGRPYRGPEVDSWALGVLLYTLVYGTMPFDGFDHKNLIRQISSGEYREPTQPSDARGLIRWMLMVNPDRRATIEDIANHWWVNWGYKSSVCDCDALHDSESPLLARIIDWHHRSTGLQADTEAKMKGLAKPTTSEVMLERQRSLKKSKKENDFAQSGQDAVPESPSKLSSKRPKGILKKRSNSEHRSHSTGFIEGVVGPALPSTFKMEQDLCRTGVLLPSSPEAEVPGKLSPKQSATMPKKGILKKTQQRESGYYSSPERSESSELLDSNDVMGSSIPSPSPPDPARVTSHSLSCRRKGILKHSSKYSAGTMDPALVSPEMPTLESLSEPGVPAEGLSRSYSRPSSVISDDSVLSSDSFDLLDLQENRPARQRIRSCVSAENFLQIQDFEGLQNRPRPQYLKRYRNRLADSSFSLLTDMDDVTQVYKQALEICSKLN
resultType: pIC50
Field pIC50 (float): negative decimal logarithm of the concentration in molar.

What value of pIC50 has been recorded for this entry: COc1cc(Nc2ncnc(Nc3cc4c(cn3)NC(=O)C(C)(C)O4)n2)cc(OC)c1OC
6.42

---

assay: Pharmacokinetics after single oral administration to rabbits; assay type: in vivo, rabbit; settings: male, New Zealand, rabbit, plasma, single oral 50 mg/kg, read-out: AUC48
resultType: AUC (µg·h/mL)
Give your result in µg·h/mL as a bare value.

Bench note: what AUC did COc1cc(Nc2ncnc(Nc3cc4c(cn3)NC(=O)C(C)(C)O4)n2)cc(OC)c1OC show?
119

---

test: Pharmacokinetics after single oral administration to rats; assay type: in vivo, rat; settings: male, Wistar, rat, plasma, oral, 200 mg/kg, Table S8, 200 mg/kg PO, male Wistar rats, 48 h, mean of Rat#13-18; read-out: Plasma concentration, Mean
resultType: concentration at 48 h (ng/mL)
Quick reminder: number only, in ng/mL, skip the unit.

For COc1cc(Nc2ncnc(Nc3cc4c(cn3)NC(=O)C(C)(C)O4)n2)cc(OC)c1OC [MT-SYK-03] , what is its reported concentration at 48 h?
5.44
